test: Clearance in rat at 1 mg/kg, iv; type: ADME, organism-based; settings: in vivo
Readout label: clearance (mL/min/kg)
Could you give me the number in mL/min/kg? Just the number is fine.

Task: Data request, read-out clearance, for `Cc1ncsc1-c1ccc([C@H](CN2CCOCC2)NC(=O)[C@@H]2C[C@@H](O)CN2C(=O)[C@@H](n2cc([C@H]3CC[C@H](CN4CCC(c5ccc6c(c5)-n5c(nc(=O)c7c(Cl)cccc75)C65CCCCC5)CC4)CC3)nn2)C(C)(C)C)cc1`
Result: 22

* * *

experiment: Plasma stability in mouse plasma assessed as half life; type: ADME, cell-free
Readout label: half-life

Task: What half-life value was documented for this molecule, `Cc1ncsc1-c1ccc([C@H](CN2CCOCC2)NC(=O)[C@@H]2C[C@@H](O)CN2C(=O)[C@@H](n2cc([C@H]3CC[C@H](CN4CCC(c5ccc6c(c5)-n5c(nc(=O)c7c(Cl)cccc75)C65CCCCC5)CC4)CC3)nn2)C(C)(C)C)cc1` ?
Result: > 2 h

* * *

assay: Plasma concentration in SCID mouse xenografted with human NCI-H838 cells at 10 mg/kg, iv measured after 96 hrs by LC-MS/MS analysis; type: ADME, organism-based
What concentration at 96 h was measured for each of the following?
Expressed in ng/mL, but write only the number.

Task: I would be grateful if you could share the reported concentration at 96 h for `Cc1ncsc1-c1ccc([C@H](CN2CCOCC2)NC(=O)[C@@H]2C[C@@H](O)CN2C(=O)[C@@H](n2cc([C@H]3CC[C@H](CN4CCC(c5ccc6c(c5)-n5c(nc(=O)c7c(Cl)cccc75)C65CCCCC5)CC4)CC3)nn2)C(C)(C)C)cc1` .
Result: 6.8

Task: What does the data say about its concentration at 96 h? Entry: `COCCOCCOC[C@H](NC(=O)[C@@H]1C[C@@H](O)CN1C(=O)[C@@H](n1cc([C@H]2CC[C@H](CN3CCC(c4ccc5c(c4)-n4c(nc(=O)c6c(Cl)cccc64)C54CCCCC4)CC3)CC2)nn1)C(C)(C)C)c1ccc(-c2scnc2C)cc1`
Result: 4.2

Task: What value of concentration at 96 h has been recorded for this entry: `COCCOC[C@H](NC(=O)[C@@H]1C[C@@H](O)CN1C(=O)[C@@H](n1cc([C@H]2CC[C@H](CN3CCC(c4ccc5c(c4)-n4c(nc(=O)c6c(Cl)cccc64)C54CCCCC4)CC3)CC2)nn1)C(C)(C)C)c1ccc(-c2scnc2C)cc1`
Result: 8.3

* * *

assay: Half life in mouse at 1 mg/kg, iv; assay type: ADME, organism-based; conditions: in vivo
Readout label: half-life (h)
Hi! Could you send only the number? It should be in h, unit omitted.

Task: Record request: half-life value, item `Cc1ncsc1-c1ccc([C@H](CN2CCOCC2)NC(=O)[C@@H]2C[C@@H](O)CN2C(=O)[C@@H](n2cc([C@H]3CC[C@H](CN4CCC(c5ccc6c(c5)-n5c(nc(=O)c7c(Cl)cccc75)C65CCCCC5)CC4)CC3)nn2)C(C)(C)C)cc1`
Result: 8.4

* * *

biological target: von Hippel-Lindau disease tumor suppressor/SWI/SNF-related matrix-associated actin-dependent regulator of chromatin subfamily A member 2 (Homo sapiens, UniProt P51531+P40337); assay: PROTAC activity at SMARCA2/VHL1 in human HeLa cells assessed as protein degradation by Nano-Glo HiBiT lytic detection assay; assay type: cell-based
Sequence (P51531 whole entry): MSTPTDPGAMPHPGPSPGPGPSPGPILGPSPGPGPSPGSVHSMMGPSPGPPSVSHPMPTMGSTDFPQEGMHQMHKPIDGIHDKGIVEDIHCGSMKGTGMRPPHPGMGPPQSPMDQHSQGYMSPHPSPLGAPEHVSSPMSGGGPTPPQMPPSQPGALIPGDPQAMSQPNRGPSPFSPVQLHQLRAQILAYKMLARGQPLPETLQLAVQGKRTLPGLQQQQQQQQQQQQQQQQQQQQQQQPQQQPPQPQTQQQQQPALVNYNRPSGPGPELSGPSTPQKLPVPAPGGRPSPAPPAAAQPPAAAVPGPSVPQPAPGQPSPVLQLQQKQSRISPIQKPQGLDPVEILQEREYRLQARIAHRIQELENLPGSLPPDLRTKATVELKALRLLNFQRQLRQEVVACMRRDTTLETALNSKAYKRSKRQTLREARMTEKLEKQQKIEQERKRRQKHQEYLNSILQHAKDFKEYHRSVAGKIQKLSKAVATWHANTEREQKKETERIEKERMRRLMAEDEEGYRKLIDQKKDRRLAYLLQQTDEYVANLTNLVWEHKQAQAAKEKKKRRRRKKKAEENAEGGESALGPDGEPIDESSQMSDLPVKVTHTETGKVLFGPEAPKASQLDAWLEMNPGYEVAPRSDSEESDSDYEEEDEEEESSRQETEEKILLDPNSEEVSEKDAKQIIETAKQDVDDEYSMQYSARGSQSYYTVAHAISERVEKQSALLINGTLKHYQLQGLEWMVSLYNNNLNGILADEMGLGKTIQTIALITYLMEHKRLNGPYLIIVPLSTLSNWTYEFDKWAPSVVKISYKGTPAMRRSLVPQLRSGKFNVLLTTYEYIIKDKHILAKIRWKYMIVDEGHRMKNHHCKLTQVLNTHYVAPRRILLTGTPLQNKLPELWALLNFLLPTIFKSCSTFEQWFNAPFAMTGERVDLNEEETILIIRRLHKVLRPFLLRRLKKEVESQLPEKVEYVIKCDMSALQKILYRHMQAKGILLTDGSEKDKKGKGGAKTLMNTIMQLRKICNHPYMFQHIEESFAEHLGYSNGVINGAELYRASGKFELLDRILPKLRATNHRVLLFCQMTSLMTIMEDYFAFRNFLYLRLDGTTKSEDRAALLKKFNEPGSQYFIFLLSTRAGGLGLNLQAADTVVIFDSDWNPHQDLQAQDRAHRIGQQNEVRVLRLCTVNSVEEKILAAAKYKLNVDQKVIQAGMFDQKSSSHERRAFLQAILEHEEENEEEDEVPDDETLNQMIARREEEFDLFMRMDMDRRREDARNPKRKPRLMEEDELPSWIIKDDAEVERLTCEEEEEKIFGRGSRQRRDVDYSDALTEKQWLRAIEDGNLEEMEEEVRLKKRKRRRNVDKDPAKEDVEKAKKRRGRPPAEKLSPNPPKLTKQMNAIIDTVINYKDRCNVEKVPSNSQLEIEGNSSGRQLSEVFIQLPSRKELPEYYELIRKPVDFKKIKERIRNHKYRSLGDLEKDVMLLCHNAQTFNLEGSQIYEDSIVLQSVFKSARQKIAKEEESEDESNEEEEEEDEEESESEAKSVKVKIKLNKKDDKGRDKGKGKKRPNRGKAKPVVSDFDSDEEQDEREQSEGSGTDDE
Sequence (P40337 whole entry): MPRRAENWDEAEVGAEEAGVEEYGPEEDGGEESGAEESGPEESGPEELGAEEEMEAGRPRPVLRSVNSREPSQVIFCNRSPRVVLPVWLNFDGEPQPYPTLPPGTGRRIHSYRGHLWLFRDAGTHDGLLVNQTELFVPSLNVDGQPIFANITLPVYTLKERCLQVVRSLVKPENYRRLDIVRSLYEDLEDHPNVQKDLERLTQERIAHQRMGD
Readout label: DC50 (nM)
Please state the figure in nM; there is no need to write the unit.

Task: Query (compound): `Cc1ncsc1-c1ccc([C@H](CN2CCOCC2)NC(=O)[C@@H]2C[C@@H](O)CN2C(=O)[C@H](C2CCOCC2)n2cc([C@H]3CC[C@H](CN4CCC(c5ccc6c(c5)-n5c(nc(=O)c7c(Cl)cccc75)C65CCCCC5)CC4)CC3)nn2)cc1` ; field requested: DC50
Result: 0.1

Task: Which DC50 reading was recorded for the compound `CC(C)(C)[C@@H](C(=O)N1C[C@H](O)C[C@H]1C(=O)N[C@@H](CN1CCOCC1)c1ccc(-c2ccccc2)cc1)n1cc([C@H]2CC[C@H](CN3CCC(c4ccc5c(c4)-n4c(nc(=O)c6c(Cl)cccc64)C54CCCCC4)CC3)CC2)nn1` ?
Result: 5

* * *

assay: Clearance in mouse at 1 mg/kg, iv; format: ADME, organism-based; conditions: in vivo
Readout label: clearance

Task: Which clearance reading was recorded for the molecule `Cc1ncsc1-c1ccc([C@H](CN2CCOCC2)NC(=O)[C@@H]2C[C@@H](O)CN2C(=O)[C@@H](n2cc([C@H]3CC[C@H](CN4CCC(c5ccc6c(c5)-n5c(nc(=O)c7c(Cl)cccc75)C65CCCCC5)CC4)CC3)nn2)C(C)(C)C)cc1` ?
Result: 9.2 mL/min/kg

* * *

I'd be grateful if you could share measured DC50 for these entries.
target: von Hippel-Lindau disease tumor suppressor/SWI/SNF-related matrix-associated actin-dependent regulator of chromatin subfamily A member 4 (Homo sapiens, UniProt P51532+P40337); assay: PROTAC activity at SMARCA4/VHL1 in human HeLa cells assessed as protein degradation by Nano-Glo HiBiT lytic detection assay; assay type: cell-based
Sequence (P51532 whole entry): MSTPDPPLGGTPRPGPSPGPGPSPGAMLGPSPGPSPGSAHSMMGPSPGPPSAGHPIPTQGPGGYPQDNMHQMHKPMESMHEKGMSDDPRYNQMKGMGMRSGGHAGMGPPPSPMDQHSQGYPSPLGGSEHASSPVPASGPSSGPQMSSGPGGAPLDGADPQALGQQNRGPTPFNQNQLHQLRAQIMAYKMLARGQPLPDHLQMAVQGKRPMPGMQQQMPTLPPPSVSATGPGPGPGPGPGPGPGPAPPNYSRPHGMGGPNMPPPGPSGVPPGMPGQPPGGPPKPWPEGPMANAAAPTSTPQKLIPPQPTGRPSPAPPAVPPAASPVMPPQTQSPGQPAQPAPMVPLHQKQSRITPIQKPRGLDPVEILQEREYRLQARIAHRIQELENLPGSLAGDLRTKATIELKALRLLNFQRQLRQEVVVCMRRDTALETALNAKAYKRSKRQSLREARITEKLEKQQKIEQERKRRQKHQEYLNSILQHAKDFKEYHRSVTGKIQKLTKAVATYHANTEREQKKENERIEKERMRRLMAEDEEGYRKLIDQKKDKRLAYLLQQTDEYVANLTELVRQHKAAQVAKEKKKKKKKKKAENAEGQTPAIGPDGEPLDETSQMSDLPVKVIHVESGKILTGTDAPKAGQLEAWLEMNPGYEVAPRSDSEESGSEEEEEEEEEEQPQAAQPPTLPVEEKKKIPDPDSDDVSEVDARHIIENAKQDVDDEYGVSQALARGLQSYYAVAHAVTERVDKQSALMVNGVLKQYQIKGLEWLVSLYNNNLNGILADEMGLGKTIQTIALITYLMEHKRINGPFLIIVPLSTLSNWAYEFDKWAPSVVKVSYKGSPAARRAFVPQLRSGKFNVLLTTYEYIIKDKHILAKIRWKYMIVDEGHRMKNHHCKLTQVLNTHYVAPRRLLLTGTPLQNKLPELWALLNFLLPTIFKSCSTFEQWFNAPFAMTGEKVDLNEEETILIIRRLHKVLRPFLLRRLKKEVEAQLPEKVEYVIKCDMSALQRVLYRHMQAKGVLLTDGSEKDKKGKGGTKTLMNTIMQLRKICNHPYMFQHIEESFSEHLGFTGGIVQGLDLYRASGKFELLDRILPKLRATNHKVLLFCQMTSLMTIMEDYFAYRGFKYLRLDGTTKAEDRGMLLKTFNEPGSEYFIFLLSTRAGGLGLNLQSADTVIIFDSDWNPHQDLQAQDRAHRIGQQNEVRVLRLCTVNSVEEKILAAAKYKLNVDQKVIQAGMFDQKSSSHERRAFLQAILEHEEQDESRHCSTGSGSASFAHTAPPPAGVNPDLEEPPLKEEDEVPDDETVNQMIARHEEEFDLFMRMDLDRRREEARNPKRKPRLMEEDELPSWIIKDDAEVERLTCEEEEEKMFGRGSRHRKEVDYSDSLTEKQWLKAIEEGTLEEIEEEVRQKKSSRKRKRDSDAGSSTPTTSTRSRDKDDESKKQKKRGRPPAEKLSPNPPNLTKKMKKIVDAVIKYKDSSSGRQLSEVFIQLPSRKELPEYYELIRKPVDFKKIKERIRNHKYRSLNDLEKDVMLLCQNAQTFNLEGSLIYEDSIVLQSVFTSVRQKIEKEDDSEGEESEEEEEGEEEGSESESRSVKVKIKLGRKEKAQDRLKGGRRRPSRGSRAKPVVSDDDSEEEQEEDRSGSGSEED
Sequence (P40337 whole entry): as the sequence (P40337 whole entry) above

Task: Item `Cc1ccccc1-c1ccc([C@H](CN2CCOCC2)NC(=O)[C@@H]2C[C@@H](O)CN2C(=O)[C@@H](n2cc([C@H]3CC[C@H](CN4CCC(c5ccc6c(c5)-n5c(nc(=O)c7c(Cl)cccc75)C65CCCCC5)CC4)CC3)nn2)C(C)(C)C)cc1` has what recorded DC50?
Result: 789 nM

Task: So what does the record say about DC50 for `COCCOC[C@H](NC(=O)[C@@H]1C[C@@H](O)CN1C(=O)[C@@H](n1cc([C@H]2CC[C@H](CN3CCC(c4ccc5c(c4)-n4c(nc(=O)c6c(Cl)cccc64)C54CCCCC4)CC3)CC2)nn1)C(C)(C)C)c1ccc(-c2scnc2C)cc1` ?
Result: > 1000 nM

Task: Find the recorded DC50 belonging to `Cc1ncsc1-c1ccc([C@H](CN2CCC(C(=O)O)CC2)NC(=O)[C@@H]2C[C@@H](O)CN2C(=O)[C@@H](n2cc([C@H]3CC[C@H](CN4CCC(c5ccc6c(c5)-n5c(nc(=O)c7c(Cl)cccc75)C65CCCCC5)CC4)CC3)nn2)C(C)(C)C)cc1` and report it.
Result: > 1000 nM

Task: Give its DC50 value. Item: `Cc1ncsc1-c1ccc([C@H](C)NC(=O)[C@@H]2C[C@@H](O)CN2C(=O)[C@@H](n2cc([C@H]3CC[C@H](CN4CCC(c5ccc6c(c5)C5(CCCCC5)c5nc(=O)c7c(Br)cccc7n5-6)CC4)CC3)nn2)C(C)(C)C)cc1`
Result: 2 nM

* * *

assay: Plasma concentration in SCID mouse xenografted with human NCI-H838 cells at 10 mg/kg, iv measured after 168 hrs by LC-MS/MS analysis; format: ADME, organism-based; conditions: SCID, plasma
Readout label: concentration at 168 h (ng/mL)
Output spec: scalar in ng/mL, unitless text.

Task: Reported concentration at 168 h, molecule `Cc1ncsc1-c1ccc([C@H](CN2CCOCC2)NC(=O)[C@@H]2C[C@@H](O)CN2C(=O)[C@H](C2CCOCC2)n2cc([C@H]3CC[C@H](CN4CCC(c5ccc6c(c5)-n5c(nc(=O)c7c(Cl)cccc75)C65CCCCC5)CC4)CC3)nn2)cc1` : ____
Result: 2.6

* * *

assay: Drug uptake in tumor of mouse xenografted with human MV4-11 cells at 30 mg/kg, iv single dose measured after 168 hrs by LC-MS/MS analysis; assay type: ADME, organism-based, Neoplasm; conditions: read-out: Drug uptake
Readout label: concentration at 168 h (ng/mL)
Hi! Could you send only the number? It should be in ng/mL, unit omitted.

Task: # lookup: concentration at 168 h of `Cc1ncsc1-c1ccc([C@H](CN2CCOCC2)NC(=O)[C@@H]2C[C@@H](O)CN2C(=O)[C@@H](n2cc([C@H]3CC[C@H](CN4CCC(c5ccc6c(c5)-n5c(nc(=O)c7c(Cl)cccc75)C65CCCCC5)CC4)CC3)nn2)C(C)(C)C)cc1`
Result: 932

* * *

biological target: von Hippel-Lindau disease tumor suppressor/SWI/SNF-related matrix-associated actin-dependent regulator of chromatin subfamily A member 2 (Homo sapiens, UniProt P51531+P40337); experiment: PROTAC activity at SMARCA2/VHL1 in human HeLa cells assessed as protein degradation by Nano-Glo HiBiT lytic detection assay; type: cell-based
Readout label: DC50 (nM)
Return type: number; implicit unit nM.

Task: Recorded DC50 for `Cc1ncsc1-c1ccc([C@H](C)NC(=O)[C@@H]2C[C@@H](O)CN2C(=O)[C@@H](n2cc([C@H]3CC[C@H](CN4CCC(c5ccc6c(c5)-n5c(nc(=O)c7c(Br)cccc75)C65CCCCC5)CC4)CC3)nn2)C(C)(C)C)cc1` , please?
Result: 0.24

Task: Consider the compound shown here: `Cc1ncsc1-c1ccc([C@H](C)NC(=O)[C@@H]2C[C@@H](O)CN2C(=O)[C@@H](n2cc([C@H]3CC[C@H](CN4CCC(c5ccc6c(c5)C5(CCCCC5)c5nc(=O)c7c(Br)cccc7n5-6)CC4)CC3)nn2)C(C)(C)C)cc1` What is its recorded DC50?
Result: 0.15

Task: Field request: DC50 | item: `Cc1ncoc1-c1ccc([C@H](CN2CCOCC2)NC(=O)[C@@H]2C[C@@H](O)CN2C(=O)[C@@H](n2cc([C@H]3CC[C@H](CN4CCC(c5ccc6c(c5)-n5c(nc(=O)c7c(Cl)cccc75)C65CCCCC5)CC4)CC3)nn2)C(C)(C)C)cc1`
Result: 1

Task: Value lookup for DC50; key = `Cc1ncsc1-c1ccc([C@H](CN2CCS(=O)(=O)CC2)NC(=O)[C@@H]2C[C@@H](O)CN2C(=O)[C@@H](n2cc([C@H]3CC[C@H](CN4CCC(c5ccc6c(c5)-n5c(nc(=O)c7c(Cl)cccc75)C65CCCCC5)CC4)CC3)nn2)C(C)(C)C)cc1`
Result: 5
